Biological target: T1, corticotropin-releasing hormone (CRH) peptide (human and mouse (same sequence), not fully specified)
T1 peptide: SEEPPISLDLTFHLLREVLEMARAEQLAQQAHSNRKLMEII
Assay: cell-based or functional assay
quantity.kind: mCrhr1 Luciferase Reporter Assay IC50
A complete answer gives the number followed by the unit.

INSERT INTO assay_data (binder, quantity_kind, recorded_measurement) VALUES
  ('PR302341-47 (antibody, human IgG1, kappa, V domains shown) VH: QVQLVQSGAEVKKPGASVKVSCKASGYTFTDYFMKWVRQAPGQGLEWMGVINPNSGDIFYNQKFKGRVTMTVDKSTSTAYMELSSLRSEDTAVYYCARGTDRALFAYWGQGTLVTVSS VL: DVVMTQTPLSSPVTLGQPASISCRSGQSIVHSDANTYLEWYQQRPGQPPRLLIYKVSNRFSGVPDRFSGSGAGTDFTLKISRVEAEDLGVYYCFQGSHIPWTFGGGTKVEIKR', 'mCrhr1 Luciferase Reporter Assay IC50', '1.6 nM'),
  ('PR302341 (antibody, human IgG1, kappa, V domains shown) VH: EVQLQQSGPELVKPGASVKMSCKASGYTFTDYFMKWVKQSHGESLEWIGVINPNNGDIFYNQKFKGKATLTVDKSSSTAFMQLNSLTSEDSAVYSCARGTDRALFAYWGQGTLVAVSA VL: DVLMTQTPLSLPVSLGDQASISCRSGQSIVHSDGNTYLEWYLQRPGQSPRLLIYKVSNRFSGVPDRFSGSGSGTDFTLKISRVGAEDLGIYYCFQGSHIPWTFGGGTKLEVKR', 'mCrhr1 Luciferase Reporter Assay IC50', '1.71 nM');

Consider the additional binder presented here.
Tell me the measured mCrhr1 Luciferase Reporter Assay IC50 of PR302341-23 (antibody, human IgG1, kappa, V domains shown) VH: QVQLVQSGAEVKKPGASVKVSCKASGYTFTDYFMKWVRQAPGQGLEWMGVINPNNGDIFYNQKFKGRVTMTVDKSISTAYMELSRLRSDDTAVYYCARGTDRALFAYWGQGTLVTVSS VL: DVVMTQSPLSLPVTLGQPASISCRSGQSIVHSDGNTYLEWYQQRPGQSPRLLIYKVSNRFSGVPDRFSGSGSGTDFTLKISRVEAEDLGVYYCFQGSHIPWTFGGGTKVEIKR , please.
1.19 nM
